target: Cyclin-dependent kinase 2/cyclin E1 (Homo sapiens, UniProt P24941); experiment: Inhibition of CDK2/Cyclin E by scintillation proximity assay
pIC50: −log10 of the molar value.
property_name: pIC50

>>> number("N#CCSc1nnc(Cc2c(NC(=O)CCl)sc3c2CCCC3)n1NC(=O)c1ccc(Cl)cc1")
5.94
>>> number("NNC(=O)CSc1nnc(Cc2c(NC(=O)CCl)sc3c2CCCC3)n1NC(=O)c1ccc(Cl)cc1")
6.10
>>> number("NNC(=O)CSc1nnc(Cc2c(NC(=O)CCl)sc3c2CCCC3)n1NC(=O)c1ccccc1")
6.31
>>> number("CC(=O)Nn1c(Cc2c(NC(=O)CCl)sc3c2CCCC3)nnc1SCC#N")
5.88
>>> number("O=C(CSc1nnc(Cc2c(NC(=O)CCl)sc3c2CCCC3)n1NC(=O)c1ccc(Cl)cc1)N/N=C/c1ccccc1")
7.32
>>> number("O=C(CSc1nnc(Cc2c(NC(=O)CCl)sc3c2CCCC3)n1NC(=O)c1ccccc1)N/N=C/c1ccccc1")
6.25
>>> number("Nn1c(S)nnc1Cc1c(NC(=O)CCl)sc2c1CCCC2")
7.28
>>> number("CC(=O)Nn1c(Cc2c(NC(=O)CCl)sc3c2CCCC3)nnc1SCC(=O)NN")
5.22
>>> number("CC(=O)Nc1sc2c(c1Cc1nnc(SCC(=O)NN)n1NC(=O)c1ccc(Cl)cc1)CCCC2")
6.23
